experimentalSystem: human PD-1 (human) (UniProt Q15116)
Sequence (Q15116 25-288): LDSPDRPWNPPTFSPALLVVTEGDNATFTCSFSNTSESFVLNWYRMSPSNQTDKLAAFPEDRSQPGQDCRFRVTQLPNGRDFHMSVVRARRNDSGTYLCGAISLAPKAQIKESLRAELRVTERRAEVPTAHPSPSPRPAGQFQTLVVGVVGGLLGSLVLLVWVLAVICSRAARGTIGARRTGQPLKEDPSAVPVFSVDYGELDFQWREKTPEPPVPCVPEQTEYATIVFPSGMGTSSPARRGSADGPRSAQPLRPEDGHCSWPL
readoutType: IFN gamma levels pg/mL (MLR) (pg/mL)

In the examples that follow, each entry is paired with its recorded IFN gamma levels pg/mL (MLR).
Measured IFN gamma levels pg/mL (MLR), variant PD-L2 IgV H15Q/C23S/I86T Fc fusion (Fc fusion) LFTVTVPKELYIIEQGSNVTLESNFDTGSHVNLGAITASLQKVENDTSPHRERATLLEEQLPLGKASFHIPQVQVRDEGQYQCIITYGVAWDYKYLTLKVKA : 1850

Looking up variant PD-L2 IgV I13V/H15Q/E44V/T47A/Q82R/V89D Fc fusion (Fc fusion) LFTVTVPKELYIVEQGSNVTLECNFDTGSHVNLGAITASLQKVVNDASPHRERATLLEEQLPLGKASFHIPQVQVRDEGQYRCIIIYGDAWDYKYLTLKVKA , I see its IFN gamma levels pg/mL (MLR) listed as 1270

Record variant PD-L2 IgV H15Q/L33H/S67L/R76G/Q82R/V89D Fc fusion (Fc fusion) LFTVTVPKELYIIEQGSNVTLECNFDTGSHVNHGAITASLQKVENDTSPHRERATLLEEQLPLGKALFHIPQVQVGDEGQYRCIIIYGDAWDYKYLTLKVKA , field IFN gamma levels pg/mL (MLR): 1500

(P) variant PD-L2 IgV I13V/H15Q/Q72H/R76G/I86T Fc fusion (Fc fusion) LFTVTVPKELYIVEQGSNVTLECNFDTGSHVNLGAITASLQKVENDTSPHRERATLLEEQLPLGKASFHIPHVQVGDEGQYQCIITYGVAWDYKYLTLKVKA
(Q) variant PD-L2 IgV I13V/Q72H/R76G/I86T Fc fusion (Fc fusion) LFTVTVPKELYIVEHGSNVTLECNFDTGSHVNLGAITASLQKVENDTSPHRERATLLEEQLPLGKASFHIPHVQVGDEGQYQCIITYGVAWDYKYLTLKVKA
Problem: Quick check, higher IFN gamma levels pg/mL (MLR) between P and Q ? Please respond with the label that marks your chosen entry.
Solution: Q
